Test system: MCF-7 cells
Assay: MTT assay for IC50 determination, MCF-7
Type: cell-based
Conditions: Homo sapiens, MCF7, read-out: IC50 for MCF-7
Experimental endpoint: IC50 (µM)
Please give a number only; it is taken to be in µM.

COc1cc(O)c2c(=O)c3c(OC)ccc(OC)c3oc2c1 [XC, 1-hydroxy-3,5,8-trimethoxyxanthone]; 8
COc1cc(O)c2c(=O)c3c(OC)c(OC)ccc3oc2c1 [XA, 1-hydroxy-3,7,8-trimethoxyxanthone]; 30

Which IC50 value is on record for COc1cc(O)c2c(=O)c3c(O)ccc(OC)c3oc2c1 [XB, 1,8-dihydroxy-3,5-dimethoxyxanthone] ?
25

Follow-up entry: COc1cc(O)c2c(=O)c3c(O)ccc(O)c3oc2c1 [XD, 1,5,8-trihydroxy-3-methoxyxanthone]
1
